The origin of these recorded values is the RNAGym collection of RNA variant scans (doi:10.1093/nar/gkz1192).

B1: CPEB3 Ribozyme (parent)
chain: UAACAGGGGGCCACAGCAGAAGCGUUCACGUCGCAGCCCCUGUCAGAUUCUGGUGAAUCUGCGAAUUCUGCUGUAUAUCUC

Variants of: B1
method-notes: self-cleavage, relative activity (ratio to wild type); higher = more cleavage; in vitro, sequencing
Assign self-cleavage to each entry below.
No unit in the answer, please; the number alone is enough.

Find the measured self-cleavage of C4A U74C and report it.
1.22

For the variant U58C U72G , give its reported self-cleavage.
0.55

Give the reported self-cleavage for this variant. G7A A28G
0.16

Supply self-cleavage value. Item: A13U U69G
0.85

Output measured self-cleavage for this item: A47U C68A
0.25

Please give the documented self-cleavage of U41C A57U
0.78

Annotate the variant U25C G73U with its measured self-cleavage.
0.43

Supply reported self-cleavage belonging to this variant: U1C U26A
0.81

Report measured self-cleavage; entry is A21C C71A
0.09

Identify self-cleavage associated with the variant U43C A56C
0.18

Indicate the recorded self-cleavage value for this variant: C39U G46U
0.11

Give the reported value of self-cleavage for this record: G6U U31C
0.22

Tell me self-cleavage reported for A13G U76C
0.94

Tell me its self-cleavage given G7U C62G as the entry.
0.17

Give reported self-cleavage value for A21U G52A
0.33

Return self-cleavage (reported value) for this variant: G9A A13G
0.3

Look up and state reported self-cleavage for C14U U74G
1.27

Look up and report measured self-cleavage for this entry: U48A U58A
0.5

Output self-cleavage of G33U U80C
0.44

Assign self-cleavage to the following record: U1C C37A
0.16

Find the measured self-cleavage of A15C A18C and report it.
0.35

Determine its reported self-cleavage: G6U A77U
0.16
